Documented stoichiometry N across a set of proteins
- tested.on: the molecule itself
- experiment.summary: SEC; analytical SEC, Superdex 200 Increase 3.2/300, 100 μg protein, 20 mM Tris-MES pH 8.0, 150 mM NaCl, 0.05 ml/min; elution volumes compared with that of ^WTCoa6
// response body must contain only the number

Consider the reported stoichiometry N for these proteins:
protein | stoichiometry N
human wild-type Coa6 (^WTCoa6) (natural protein, five residues left at the N terminus after cleavage of the GST tag with PreScission Protease; Coa6, human; isoform 3, composed of residues 47-125 of the full-length Coa6 isoform 1 (UniProtKB Q5JTJ3); the N-terminal residue is numbered Met47; Fully oxidized: intramolecular disulfides Cys58-Cys90 and Cys68-Cys79; also called Coa6 isoform 3; not shown: GST, N-terminal, cleaved) GPLGSMAAPSMKERQVCWGARDEYWKCLDENLEDASQCKKLRSSFESSCPQQWIKYFDKRRDYLKFKEKFEAGQFEPSETTAKS | 2
^Y104ACoa6 (natural protein, human, five residues left at the N terminus after cleavage of the GST tag with PreScission Protease; Coa6, human; residues 47-125 of the full-length Coa6 isoform 1 (UniProtKB Q5JTJ3), mutation introduced into the ^WTCoa6 ORF; not shown: GST, N-terminal, cleaved) GPLGSMAAPSMKERQVCWGARDEYWKCLDENLEDASQCKKLRSSFESSCPQQWIKYFDKRRDALKFKEKFEAGQFEPSETTAKS | 2
^R101ACoa6 (natural protein, human, five residues left at the N terminus after cleavage of the GST tag with PreScission Protease; Coa6, human; residues 47-125 of the full-length Coa6 isoform 1 (UniProtKB Q5JTJ3), mutation introduced into the ^WTCoa6 ORF; not shown: GST, N-terminal, cleaved) GPLGSMAAPSMKERQVCWGARDEYWKCLDENLEDASQCKKLRSSFESSCPQQWIKYFDKARDYLKFKEKFEAGQFEPSETTAKS | 2

Form field stoichiometry N, entry ^Y97ACoa6 (natural protein, human, five residues left at the N terminus after cleavage of the GST tag with PreScission Protease; Coa6, human; residues 47-125 of the full-length Coa6 isoform 1 (UniProtKB Q5JTJ3), mutation introduced into the ^WTCoa6 ORF; not shown: GST, N-terminal, cleaved) GPLGSMAAPSMKERQVCWGARDEYWKCLDENLEDASQCKKLRSSFESSCPQQWIKAFDKRRDYLKFKEKFEAGQFEPSETTAKS : 2

Form field stoichiometry N, entry ^Y97A/Y104ACoa6 (natural protein, human, five residues left at the N terminus after cleavage of the GST tag with PreScission Protease; Coa6, human; residues 47-125 of the full-length Coa6 isoform 1 (UniProtKB Q5JTJ3), mutations introduced into the ^WTCoa6 ORF; not shown: GST, N-terminal, cleaved) GPLGSMAAPSMKERQVCWGARDEYWKCLDENLEDASQCKKLRSSFESSCPQQWIKAFDKRRDALKFKEKFEAGQFEPSETTAKS : 2
